Just for reference, the RNAGym collection of RNA variant scans (doi:10.1073/pnas.2313332121) is where these values come from.

Attribute: polymerase ribozyme fitness (log ratio)
B1: TPR 5TU (parent)
chain: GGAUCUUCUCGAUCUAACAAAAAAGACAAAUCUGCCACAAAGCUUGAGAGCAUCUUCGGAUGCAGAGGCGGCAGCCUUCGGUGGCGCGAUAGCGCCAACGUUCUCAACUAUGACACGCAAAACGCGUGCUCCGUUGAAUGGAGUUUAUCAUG

variants of: B1; test: polymerase ribozyme fitness, log enrichment relative to wild type (log ratio); higher = more active; in vitro selection for triplet polymerase activity
Variants at the floor of the assay were thinned out.

Below, 10 variants whose answers are already recorded.
stdin: Any idea what its polymerase ribozyme fitness (log ratio) is? The variant is C57U C93U A115C A142C A147U
stdout: ≤ -4.2

stdin: Any idea what its polymerase ribozyme fitness (log ratio) is? The variant is U9A A20U A28U C79A C87U U139A
stdout: ≤ -4.2

stdin: Any idea what its polymerase ribozyme fitness (log ratio) is? The variant is A19C A41C G48C C87U A91C A115C A122U G136C U145A
stdout: ≤ -4.2

stdin: Any idea what its polymerase ribozyme fitness (log ratio) is? The variant is C32U C96G A142U
stdout: -3.35

stdin: Any idea what its polymerase ribozyme fitness (log ratio) is? The variant is A17C C95U A119U A150G
stdout: -1.7

stdin: Any idea what its polymerase ribozyme fitness (log ratio) is? The variant is G67U
stdout: -2.55

stdin: Any idea what its polymerase ribozyme fitness (log ratio) is? The variant is C38G A40U U55A U56A C87U A89C
stdout: -3.99

stdin: Any idea what its polymerase ribozyme fitness (log ratio) is? The variant is U55G A106C
stdout: -0.416

stdin: Any idea what its polymerase ribozyme fitness (log ratio) is? The variant is A23U C93U G126U
stdout: ≤ -4.2

stdin: Any idea what its polymerase ribozyme fitness (log ratio) is? The variant is G42A G59C C125G
stdout: ≤ -4.2

More entries:
stdin: Any idea what its polymerase ribozyme fitness (log ratio) is? The variant is A26G A49C A89U G92A U102G G140U
stdout: ≤ -4.2

stdin: Any idea what its polymerase ribozyme fitness (log ratio) is? The variant is C123U U145A
stdout: 0.729

stdin: Any idea what its polymerase ribozyme fitness (log ratio) is? The variant is C8U G84U
stdout: -4.13

stdin: Any idea what its polymerase ribozyme fitness (log ratio) is? The variant is C8G G25C U33C C93U G124C
stdout: ≤ -4.2

stdin: Any idea what its polymerase ribozyme fitness (log ratio) is? The variant is A37C G59A G81A C96A
stdout: -2.74

stdin: Any idea what its polymerase ribozyme fitness (log ratio) is? The variant is C69A G71U C85G C103U G117C
stdout: -3.28

stdin: Any idea what its polymerase ribozyme fitness (log ratio) is? The variant is C85A A98G C116U A120C A147U
stdout: 0.389

stdin: Any idea what its polymerase ribozyme fitness (log ratio) is? The variant is U7C U9G C54U A107C U127A
stdout: ≤ -4.2

stdin: Any idea what its polymerase ribozyme fitness (log ratio) is? The variant is C75A C103G
stdout: ≤ -4.2

stdin: Any idea what its polymerase ribozyme fitness (log ratio) is? The variant is A28G C32U G86C A115G U144G
stdout: ≤ -4.2

stdin: Any idea what its polymerase ribozyme fitness (log ratio) is? The variant is C35A C93G A98C C99U G141C
stdout: ≤ -4.2

stdin: Any idea what its polymerase ribozyme fitness (log ratio) is? The variant is A28U A41C G88C
stdout: ≤ -4.2
